# MEASURED TARGET: Caspase-1 (Homo sapiens, UniProt P29466)
# Sequence (P29466 120-297 limits assumed): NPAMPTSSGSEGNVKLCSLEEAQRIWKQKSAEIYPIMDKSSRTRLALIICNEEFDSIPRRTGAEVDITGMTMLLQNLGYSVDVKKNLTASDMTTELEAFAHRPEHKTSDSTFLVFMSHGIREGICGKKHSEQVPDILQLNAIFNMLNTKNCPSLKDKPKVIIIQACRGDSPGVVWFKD
# Sequence (P29466 317-404 limits assumed): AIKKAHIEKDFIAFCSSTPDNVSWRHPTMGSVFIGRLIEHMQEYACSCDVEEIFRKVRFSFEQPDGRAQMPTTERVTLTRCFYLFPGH
# ASSAY EXPLANATION: Inhibition of IL-1 beta converting enzyme (ICE) in human blood monocytes expressed as Ki
Listed next: entries and their corresponding pKi.
Please keep in mind that pKi is minus log10 of the molar concentration; only the number is needed.

C=CCOC(=O)NC(CC(=O)O)C(=O)COc1ccc2ccccc2c1 (configuration not stated)    5.40
C=CCOC(=O)N[C@@H](CC(=O)O)C(=O)COc1cc2ccccc2cc1-c1ncc[nH]1    7.05
C=CCOC(=O)NC(CC(=O)O)C(=O)COc1ccccc1 (configuration not stated)    5.57
CC(C)[C@H](NC(=O)OCc1ccccc1)C(=O)N[C@@H](C)C(=O)N[C@@H](CC(=O)O)C(=O)COc1cc2ccccc2cc1C(N)=O    5.77

Now examine the next entry.
Tested on Caspase-1 (Homo sapiens, UniProt P29466), the item C=CCOC(=O)NC(CC(=O)O)C(=O)COc1cc(-c2ccccc2)ccc1C(N)=O (configuration not stated) showed pKi equal to 5.70
